tested on: TK-10 renal; assay: NCI tumour cell line growth inhibition, 48 h
Where a SMILES comes first, the peptide text is derived from it. Bridges are numbered along the chain shown (N, C = ends). [ ]: non-standard residue; d: D form. The star is where a group is joined. ξ: configuration not given here. Cbz = O=C(OCc1ccccc1)*; ξD = NC(CC(=O)O)C(=O)O; Ac3c = NC1(C(=O)O)CC1; Boc = CC(C)(C)OC(=O)*; OtBu = CC(C)(C)O*
What TGI was measured for each of the following?

Please give the measured TGI for this compound: [N-]=[N+]=NC[C@H]1OCO[C@H](CN=[N+]=[N-])[C@H]2OCCOCCOc3ccccc3OCCOCCO[C@@H]21
> 100 µM

Query (compound): Cc1nn(C(=O)c2ccncc2)c2c1C(c1cccc([N+](=O)[O-])c1)SC(N)=N2 (stereo not given) ; field requested: TGI
> 10 µM

For every listed record, write down its TGI.
1. COc1cc2c(c(OC)c1OC)-c1c(cc3c(c1OC)OCO3)CC(C)C(C)(O)C2OC(=O)c1ccccc1 (stereo not given)
2. CC(=O)Nc1ccc(C(=O)N2N=C(C)/C(=C/c3cccc([N+](=O)[O-])c3)C2=O)cc1
3. COc1cccc(CC(C)=C(c2ccc(OCCCN(C)C)cc2)c2ccc(OCCCN(C)C)cc2)c1
4. COc1ccc(-c2ccc(/C=N/n3c(COc4ccccc4Cl)n[nH]c3=S)o2)c([N+](=O)[O-])c1
5. Cc1oc2c(c1C(=O)N1CC[C@@H](N)C1)C(=O)c1c(c(O)c3ccccc3c1O)C2=O
6. COC(=O)C1CCCCNC(=O)CCC(NC(=O)OCc2ccccc2)C(=O)N1 (stereo not drawn) (Cbz-Glu-Lys-OMe; lactam 1-2; configuration not given here)

1: > 100 µM; 2: > 100 µM; 3: 3.01 µM; 4: 39.5 µM; 5: 16.3 µM; 6: > 100 µM

# batch size: 3; output TGI per entry
1. O=C(N/N=C/c1ccc(Cl)cc1)c1cc(I)cc(I)c1O
2. CC(=O)NNc1nc(C)c(C(=O)/C=C/c2ccc(/C=C/C(=O)c3sc(NNC(C)=O)nc3C)cc2)s1
3. CC(=O)c1ccc(N2CCN(C3=CC(=O)c4c(O)ccc(O)c4C3=O)CC2)cc1

["> 100 µM", "> 100 µM", "> 100 µM"]

Please state TGI for every compound in the list that follows.
1. C=CCC1(CC)C(=O)NC(=O)NC1=O
2. CCCCc1ccc(-n2sc3ncccc3c2=O)cc1
3. Nc1n[nH]c2ccc([C@@H]3Nc4cc5[nH]ncc5cc4[C@H]4C5CCC(C5)[C@@H]34)cc12 (stereo not given in full)
4. CCCCCn1c(=O)c2c(=O)[nH][nH]c2c2ccccc21
5. CC(=O)CC(C)(C)NC(=O)[C@@]1(O)CC[C@H]2[C@@H]3CCC4=CC(=O)CC[C@@H]4[C@H]3CC[C@@]21C
6. CC(=O)Nc1ccc(C(=O)NN2C(=O)C(Cl)C2c2ccc(O)cc2)cc1 (stereo not given)
7. COC(=O)C1(NC(=O)C(CC(=O)OC(C)(C)C)NC(=O)OC(C)(C)C)CC1 (stereo not given) (Boc-[ξD](OtBu)-[Ac3c]-OMe)
8. O=c1c(-c2ccccc2)coc2cc(OC/C(=N/O)c3ccc(F)cc3)ccc12

> 100 µM
27.4 µM
> 95.9 µM
> 100 µM
> 100 µM
> 100 µM
> 100 µM
39.5 µM

* * *

system: IGROV1 ovarian; experiment: NCI tumour cell line growth inhibition, 48 h
Where a SMILES comes first, the peptide text is derived from it. Bridges are numbered along the chain shown (N, C = ends). The star is where a group is joined. Cbz = O=C(OCc1ccccc1)*
Endpoint label: TGI

The cases that follow already have their TGI on record.
Entry O=C(CCc1nc(=S)[nH][nH]1)Nc1cccc(C(F)(F)F)c1 has what TGI?
> 100 µM

I would be grateful if you could share the reported TGI for O=C(O)c1cc(Cl)cc2c1NC1(N2)C(=O)Nc2ccccc21 (centres undefined) .
> 100 µM

I would be grateful if you could share the reported TGI for Cc1nn(C(=O)c2ccncc2)c2c1C(c1cccc([N+](=O)[O-])c1)SC(N)=N2 (centres undefined) .
> 10 µM

Using the record for CCCCc1c2c(nc3c1CCc1cc4cc5c(nc4nc1-3)-c1nc3c(c(CCCC)c1CC5)CCC/C3=C\c1ccccc1)/C(=C/c1ccccc1)CCC2 , report its TGI.
> 100 µM

Reported TGI for COc1ccc2c(c1)C(=O)c1c-2c(N2CCNCC2)nc2ccccc12 : what is it?
8.7 µM

Would you be so kind as to report TGI for each listed record?
1. CC(=O)O.CC(=O)O.CC(=O)O.CC(=O)O.[Rh].[Rh]
2. CCC[CH2][Sn]([CH2]CCC)([O]C(=O)/C=C/c1ccccc1F)[O]C(=O)/C=C/c1ccccc1F
3. COC(=O)C1CCCCNC(=O)CCC(NC(=O)OCc2ccccc2)C(=O)N1 (stereo not drawn) (Cbz-Glu-Lys-OMe; lactam 1-2; configuration not given here)
4. COc1ccc(-c2onc(-c3c(C)cc(C)cc3C)c2C2=NCCN2)cc1

["91.1 µM", "1.66 µM", "> 100 µM", "> 100 µM"]

* * *

For each entry below, report its GI50 value.
test system: 786-0 renal; test: NCI tumour cell line growth inhibition, 48 h

For orientation, consider the following solved cases.
Return reported GI50; argument: O=c1cccc(C#CC#CCCCO)o1
5.27 µM

Would you kindly share the measured GI50 for Cc1ccc(Sc2oc(-c3ccc(C)cc3)nc2[P+](c2ccccc2)(c2ccccc2)c2ccccc2)cc1 ?
0.379 µM

Item under review: CCSc1nc(N)c(C#N)c(-c2ccco2)c1C#N . Reported GI50?
39.6 µM

Kindly give each listed record's GI50.
1. Nc1n[nH]c2ccc([C@@H]3Nc4cc5[nH]ncc5cc4[C@H]4C5CCC(C5)[C@@H]34)cc12 (some centres not stated)
2. C[C@H]1c2ccccc2CN1CCCOc1cc2c(cc1OCC1CC1)C1(CCCC1)C(N)=N2
3. O=C(NN1C(=O)CSC1c1ccc(F)cc1)C(O)c1ccccc1 (configuration not stated)
4. NS(=O)(=O)c1cccc(-c2ccc3c(NC(=O)C4CC4)n[nH]c3c2)c1
5. OCc1ccc(N2CCCC2)cc1Cl
6. Cc1cccc2c(Nc3ccc(NS(C)(=O)=O)cc3)c3ccc([N+](=O)[O-])cc3nc12
7. Nc1cc2cccc[n+]2c2cccc(Cl)c12

1. 0.709 µM
2. 2.06 µM
3. > 100 µM
4. 24.3 µM
5. 27.5 µM
6. 0.738 µM
7. 22.1 µM

Record GI50 for all entries; do not skip any.
1. O=C(Nc1ccccc1Cl)c1cccc(NC2=C(Cl)C(=O)N(Cc3ccccc3)C2=O)c1
2. CCN1C(=O)N(CC)C2C1NN=c1s/c(=C\c3ccc[nH]3)c(=O)n12 (configuration not stated)

10.2 µM
0.614 µM

* * *

Kindly state TGI for each of the entries shown.
system: HT29 colon; experiment: NCI tumour cell line growth inhibition, 48 h

Give recorded TGI with HT29 colon for the following molecule: Cc1cc(C)c2c(=N)c3ccccc3n(CCCCCCO)c2n1
3.93 µM

For HT29 colon, provide TGI of Cc1occ2c1C(=O)CC1C2[C@@H](O)CC2C(C)(C)CCC[C@]12C (some centres not stated) please.
> 100 µM

// lookup TGI | system=HT29 colon | key= C#CCSc1nc(N)c2ncn(C3OC(COP(=O)(O)O)C(O)C3O)c2n1 (configuration not stated)
> 239 µM

# value lookup — system HT29 colon, readout TGI, item O=C1CCC2(O)C3Cc4ccc(Oc5nnnn5-c5ccccc5)c5c4C2(CCN3CC2CC2)C1O5 (configuration not stated)
68.8 µM

// map Cc1nn(C(=O)c2ccncc2)c2c1C(c1cccc([N+](=O)[O-])c1)SC(N)=N2 (configuration not stated) to recorded TGI (system: HT29 colon)
> 10 µM

Record TGI for all entries; do not skip any.
1. CCN(CC)CCCC(C)Nc1c(Sc2cnc3cc(Cl)ccc3c2NC(C)CCCN(CC)CC)cnc2cc(Cl)ccc12 (configuration not stated)
2. O=C(Nc1ccccc1Cl)c1cccc(NC2=C(Cl)C(=O)N(Cc3ccccc3)C2=O)c1
3. CN1Cc2c(nc(-c3ccc(Br)cc3)c[n+]2[O-])N(C)C1

1. 3.65 µM
2. > 100 µM
3. > 100 µM

Fill in TGI for each of the 7 molecules listed.
1. Cc1ccc(SC[C@@]2(C(F)F)NC(=O)NC2=O)cc1
2. CC1(C)CC2=C(Sc3ccccc3N2)C(=O)C1C(=O)C(=O)Nc1cc(Cl)ccc1Cl (configuration not stated)
3. COc1cccc(C2C(C#N)=C(N)Oc3c2ccc2ccccc32)c1 (configuration not stated)
4. Brc1cccc(-c2cc(-c3ccc4nccnc4c3)[nH]n2)c1
5. COc1ccc(/C(=N/Nc2nc3ccccc3[nH]2)C(=O)O)cc1
6. COC(=O)C#CCC1CCCC1C1SCCS1 (configuration not stated)
7. CC(=O)C12C[C@](C#N)(N3CCCCCC3)C1C=Cc1ccccc12 (some centres not stated)

1: > 100 µM; 2: > 100 µM; 3: 4.71 µM; 4: > 165 µM; 5: > 100 µM; 6: > 100 µM; 7: > 100 µM

List the reported TGI of each molecule below.
1. Cn1nnc2c(C(N)=O)ncn2c1=O
2. O=c1c(-c2ccccc2)coc2cc(OC/C(=N/O)c3ccc(F)cc3)ccc12
3. Nc1ccc(C(=O)NN2C(=O)C(Cl)C2c2cccc(O)c2)cc1 (configuration not stated)
4. Nc1ncnc2c1nnn2C1C=C(CO)C(O)C1O (configuration not stated)
5. COc1cc(OC)cc(-n2c(N)c(-c3nc4ccccc4n3C)c3ccc([N+](=O)[O-])cc3c2=O)c1
6. NC(=O)C12CC3CC(CC(Br)(C3)C1)C2
7. CCOC(=O)C1=C(C)N2C(=NC3=C(CCC/C3=C\c3ccc(Cl)cc3)C2c2ccc(Cl)cc2)S1 (configuration not stated)

> 100 µM
> 100 µM
35.2 µM
> 100 µM
> 100 µM
> 100 µM
5.92 µM
